- tested on: HEK cells stably transfected with tetracycline inducible hNR1 and hNR2A (Homo sapiens, UniProt Q05586+Q12879)
- Construct: expressed in transfected cells; host or cells: HEK cells, stably transfected, tetracycline/doxycycline inducible
- Sequence (Q12879 23-1464, other chains not shown): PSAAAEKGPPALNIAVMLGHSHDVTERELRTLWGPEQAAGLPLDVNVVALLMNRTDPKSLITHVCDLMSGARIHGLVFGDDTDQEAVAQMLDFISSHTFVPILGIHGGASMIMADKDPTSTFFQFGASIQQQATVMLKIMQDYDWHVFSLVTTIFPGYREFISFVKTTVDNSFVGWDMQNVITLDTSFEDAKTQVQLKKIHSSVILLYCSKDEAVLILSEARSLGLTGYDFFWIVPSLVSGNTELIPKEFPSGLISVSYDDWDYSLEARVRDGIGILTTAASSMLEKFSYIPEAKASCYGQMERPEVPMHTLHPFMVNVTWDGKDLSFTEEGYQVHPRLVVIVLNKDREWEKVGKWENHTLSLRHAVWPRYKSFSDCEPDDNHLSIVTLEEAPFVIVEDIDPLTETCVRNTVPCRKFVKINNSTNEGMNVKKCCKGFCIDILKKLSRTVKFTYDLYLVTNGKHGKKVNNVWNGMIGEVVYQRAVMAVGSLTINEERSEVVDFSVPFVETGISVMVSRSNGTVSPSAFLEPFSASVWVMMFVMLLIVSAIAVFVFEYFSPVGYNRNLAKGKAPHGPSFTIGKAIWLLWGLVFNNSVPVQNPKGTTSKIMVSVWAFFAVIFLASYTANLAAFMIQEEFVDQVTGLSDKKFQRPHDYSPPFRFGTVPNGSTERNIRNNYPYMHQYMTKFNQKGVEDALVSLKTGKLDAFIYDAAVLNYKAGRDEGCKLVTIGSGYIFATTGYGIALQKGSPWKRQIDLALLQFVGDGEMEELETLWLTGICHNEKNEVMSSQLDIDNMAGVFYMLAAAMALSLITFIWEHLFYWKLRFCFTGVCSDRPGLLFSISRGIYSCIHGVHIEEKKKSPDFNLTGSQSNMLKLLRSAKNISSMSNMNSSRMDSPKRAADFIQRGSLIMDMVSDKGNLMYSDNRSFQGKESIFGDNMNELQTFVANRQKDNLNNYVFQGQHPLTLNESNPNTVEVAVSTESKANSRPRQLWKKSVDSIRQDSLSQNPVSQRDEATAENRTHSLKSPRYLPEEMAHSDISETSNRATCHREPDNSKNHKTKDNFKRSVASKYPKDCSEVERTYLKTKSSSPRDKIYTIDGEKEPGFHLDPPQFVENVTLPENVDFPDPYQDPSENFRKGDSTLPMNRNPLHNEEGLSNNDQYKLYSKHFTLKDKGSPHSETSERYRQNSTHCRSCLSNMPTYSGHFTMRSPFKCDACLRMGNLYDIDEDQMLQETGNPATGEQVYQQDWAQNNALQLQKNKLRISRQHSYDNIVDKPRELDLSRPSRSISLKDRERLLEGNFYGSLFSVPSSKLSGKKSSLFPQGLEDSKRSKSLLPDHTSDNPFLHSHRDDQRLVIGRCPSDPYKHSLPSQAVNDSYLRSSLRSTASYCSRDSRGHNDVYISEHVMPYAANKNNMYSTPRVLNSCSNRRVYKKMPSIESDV
- procedure summary: Assay 1: Cell-Based Assay, cytosolic calcium response to positive allosteric modulators (with 30 μM glycine and 300 nM L-glutamate, EC30)
- experimental setup: Table 2; cytosolic calcium response, with 30 μM glycine and 300 nM L-glutamate (EC30); — = no plateau was reached
Examples of compounds with documented EC50 follow.

{"compound": "CCc1cc(C(F)(F)F)nn1Cc1cc(=O)n2c(C3CC3CO)c(C)sc2n1 (stereo not shown)", "EC50": "2.2 µM"}
{"compound": "CCN(Cc1cc(=O)n2c(C3CC3C#N)c(C)sc2n1)c1ccc(F)cc1 (stereo not shown)", "EC50": "0.122 µM"}
{"compound": "Cc1sc2nc(CN(CCF)c3ccc(F)cc3)cc(=O)n2c1[C@@H]1C[C@H]1CO (single isomer, unassigned)", "EC50": "0.821 µM"}
{"compound": "CCNC(=O)c1c(C)sc2nc(COc3ccc(F)cc3)cc(=O)n12", "EC50": "11.2 µM"}

###

Examples of compounds with documented pEC50 follow.
- tested on: HEK cells stably transfected with tetracycline inducible hNR1 and hNR2A (Homo sapiens, UniProt Q05586+Q12879)
- Construct: expressed in transfected cells; host or cells: HEK cells, stably transfected, tetracycline/doxycycline inducible
- procedure summary: Assay 1: Cell-Based Assay, cytosolic calcium response to positive allosteric modulators (with 30 μM glycine and 300 nM L-glutamate, EC30)
- experimental setup: Table 2; cytosolic calcium response, with 30 μM glycine and 300 nM L-glutamate (EC30); — = no plateau was reached
pEC50: −log10 of the molar value.
measured metric: pEC50

{"compound": "CNC(=O)c1c(C)sc2nc(Cc3cccc(CO)c3F)cc(=O)n12 [Example 21.24]", "measured metric": "pEC50", "experimental result": 4.46}
{"compound": "CCN(Cc1cc(=O)n2c(C3CCC3)c(C)sc2n1)c1ccc(F)cc1 [Example 10.1]", "measured metric": "pEC50", "experimental result": 5.36}
{"compound": "Cc1sc2nc(COc3ccc(C(F)(F)F)cc3)cc(=O)n2c1[C@@H]1C[C@H]1CO (relative stereo) [Example 4.10]", "measured metric": "pEC50", "experimental result": 5.37}
{"compound": "CCN(Cc1cc(=O)n2c(C(O)CCO)c(C)sc2n1)c1ccc(F)cc1 (single isomer, unassigned) [Example 12.4]", "measured metric": "pEC50", "experimental result": 6.23}
{"compound": "CCN(Cc1cc(=O)n2c(C#N)c(C)sc2n1)c1cccc(F)c1 [Example 7.2]", "measured metric": "pEC50", "experimental result": 6.21}
{"compound": "CCN(Cc1cc(=O)n2c(-c3ccsc3)c(C)sc2n1)c1ccc(F)cc1 [Example 5.47]", "measured metric": "pEC50", "experimental result": 6.01}
{"compound": "Cc1cn2c(=O)cc(Cn3nc(C(F)(F)F)cc3C(F)(F)F)nc2s1 [Example 15.33]", "measured metric": "pEC50", "experimental result": 4.73}
{"compound": "Cc1sc2nc(COc3ccc(F)cc3)cc(=O)n2c1C1CC1C#N (racemic) [Example 4.18]", "measured metric": "pEC50", "experimental result": 5.30}
{"compound": "CC1(C)CCc2sc3nc(Cn4nc(C5CC5)cc4C(F)(F)F)cc(=O)n3c21 [Example 27.8]", "measured metric": "pEC50", "experimental result": 4.52}
{"compound": "CCN(Cc1cc(=O)n2c(C3CC3CO)c(C)sc2n1)c1ccc(F)cc1 (single isomer, unassigned) [Example 5.19]", "measured metric": "pEC50", "experimental result": 5.77}
{"compound": "CCN(Cc1cc(=O)n2c(-c3cncnc3)c(C)sc2n1)c1cccc(F)c1 [Example 5.5]", "measured metric": "pEC50", "experimental result": 5.62}
{"compound": "CNC(=S)c1c(C)sc2nc(COc3ccc(F)cc3)cc(=O)n12 [Example 1.17]", "measured metric": "pEC50", "experimental result": 5.40}
{"compound": "CCNC(=O)c1c(C(F)(F)F)sc2nc(Cn3nc(C4CC4)cc3C(F)(F)F)cc(=O)n12 [Example 16.4]", "measured metric": "pEC50", "experimental result": 5.04}
{"compound": "CCN(Cc1cc(=O)n2c(-c3cncc(F)c3)c(C)sc2n1)c1ccc(F)cc1 [Example 5.24]", "measured metric": "pEC50", "experimental result": 6.14}
{"compound": "CCN(Cc1cc(=O)n2c3c(sc2n1)CCC3CC#N)c1ccc(F)cc1 (centres unmarked) [Example 8.13]", "measured metric": "pEC50", "experimental result": 5.66}
{"compound": "Cc1sc2nc(Cn3nc(C(F)(F)F)cc3C3CC3)cc(=O)n2c1[C@@H]1C[C@H]1CO (relative stereo) [Example 15.11]", "measured metric": "pEC50", "experimental result": 6.82}
{"compound": "Cc1sc2nc(COc3ccc(F)cc3)cc(=O)n2c1[C@@H]1C[C@H]1C#N (single isomer, unassigned) [Example 4.21]", "measured metric": "pEC50", "experimental result": 4.79}
{"compound": "CCN(Cc1cc(=O)n2c(Cl)c(C)sc2n1)c1ccc(F)cc1 [Example 11.1]", "measured metric": "pEC50", "experimental result": 5.70}
{"compound": "CCN(Cc1cc(=O)n2c(C(F)(F)F)c(C)sc2n1)c1ccc(F)cc1 [Example 5.38]", "measured metric": "pEC50", "experimental result": 5.96}
{"compound": "CCN(Cc1cc(=O)n2c3c(sc2n1)CCC3)c1ccc(F)cc1 [Example 8.1]", "measured metric": "pEC50", "experimental result": 5.28}
{"compound": "CCN(Cc1cc(=O)n2c(CO)c(C)sc2n1)c1ccc(F)cc1 [Example 10.12]", "measured metric": "pEC50", "experimental result": 5.68}
{"compound": "C=Cc1c(C)sc2nc(CN(CC)c3ccc(F)cc3)cc(=O)n12 [Example 5.53]", "measured metric": "pEC50", "experimental result": 5.89}
{"compound": "O=c1cc(Cn2nc(C(F)(F)F)cc2C2CC2)nc2sc3c(n12)CCC3 [Example 27.5]", "measured metric": "pEC50", "experimental result": 4.52}
{"compound": "CCN(Cc1cc(=O)n2c(C(C)(C)O)csc2n1)c1ccc(F)cc1 [Example 10.19]", "measured metric": "pEC50", "experimental result": 6.08}
{"compound": "CCNC(=O)c1c(C2CC2)sc2nc(Cn3nc(C(F)(F)F)cc3C3CC3)cc(=O)n12 [Example 16.6]", "measured metric": "pEC50", "experimental result": 5.26}
{"compound": "Cc1sc2nc(COc3ccc(F)cc3)cc(=O)n2c1C1CC1C (centres unmarked) [Example 4.25]", "measured metric": "pEC50", "experimental result": 5.55}
